biological target: CYP2C9 (Homo sapiens, UniProt P11712); assay: CYP inhibition assay, recombinant isoform, fluorescence; assay type: biochemical; settings: human; 0.3 µM; read-out: % inhibition CYP 2C9
Sequence (P11712 whole entry, canonical isoform): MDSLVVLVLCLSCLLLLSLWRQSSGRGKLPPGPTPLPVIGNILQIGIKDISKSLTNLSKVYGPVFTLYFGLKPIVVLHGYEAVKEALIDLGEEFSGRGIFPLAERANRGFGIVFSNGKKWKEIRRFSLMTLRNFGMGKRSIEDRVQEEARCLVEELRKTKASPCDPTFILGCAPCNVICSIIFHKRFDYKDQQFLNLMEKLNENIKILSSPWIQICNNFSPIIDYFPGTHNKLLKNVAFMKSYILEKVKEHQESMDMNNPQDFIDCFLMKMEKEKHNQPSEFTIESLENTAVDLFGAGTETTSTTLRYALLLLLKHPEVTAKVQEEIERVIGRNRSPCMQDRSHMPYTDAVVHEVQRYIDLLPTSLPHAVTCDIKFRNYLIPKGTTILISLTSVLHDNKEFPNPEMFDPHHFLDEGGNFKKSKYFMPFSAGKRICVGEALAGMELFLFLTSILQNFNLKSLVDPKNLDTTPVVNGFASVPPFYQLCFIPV
measure.name: inhibition at 25 min, 0.3 µM
Quote the value and follow it with the unit of measurement.

State the recorded inhibition at 25 min, 0.3 µM for this entry: Nc1ccc(S(=O)(=O)Nc2ccnn2-c2ccccc2)cc1 [Sulfaphenazole, reference compound] 45.2%

---

Biological target: CYP2D6 (Homo sapiens, UniProt P10635)
Sequence (P10635 whole entry, canonical isoform): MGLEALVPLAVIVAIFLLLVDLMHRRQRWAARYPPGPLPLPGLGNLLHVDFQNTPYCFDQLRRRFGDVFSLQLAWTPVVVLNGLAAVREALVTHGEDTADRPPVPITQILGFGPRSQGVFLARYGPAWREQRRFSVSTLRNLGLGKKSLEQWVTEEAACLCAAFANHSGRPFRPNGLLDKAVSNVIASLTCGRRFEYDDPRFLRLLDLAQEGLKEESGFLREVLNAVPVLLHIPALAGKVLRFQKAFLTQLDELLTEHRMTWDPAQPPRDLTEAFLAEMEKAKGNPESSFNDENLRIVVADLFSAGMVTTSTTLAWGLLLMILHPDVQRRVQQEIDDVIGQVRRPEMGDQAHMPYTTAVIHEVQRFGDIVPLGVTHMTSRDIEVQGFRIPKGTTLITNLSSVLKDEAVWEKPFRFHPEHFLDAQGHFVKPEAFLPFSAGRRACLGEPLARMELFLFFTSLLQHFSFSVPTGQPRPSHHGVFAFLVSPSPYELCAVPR
Assay: CYP inhibition assay, recombinant isoform, fluorescence
Type: biochemical
Conditions: human
Method: The CYP inhibition assay was performed for test/control inhibitor items in duplicates using a 96-well fluorescence plate. An example of the preparation of CYP inhibition is given below in Table 8. The plate with CYP master premix with test/control was incubated to allow the test/control samples to interact with CYP enzyme for 10 ± 1 min at 25°C under shaking conditions (400 rpm) using Thermomixer. […]
Where a SMILES comes first, the peptide text is derived from it. [ ]: non-standard residue; d: D form. The star is where a group is joined. d(aIle) = CC[C@H](C)[C@@H](N)C(=O)O; X1 = CC[C@H](C)CCCCC(=O)*; dDab = NCC[C@@H](N)C(=O)O; Dab = NCC[C@H](N)C(=O)O
measure.name: inhibition at 25 min, 1 µM

Tell me the measured inhibition at 25 min, 1 µM of CC[C@H](C)CCCCC(=O)NCC(=O)N[C@H](CCN)C(=O)NCC(=O)N[C@H](CO)C(=O)N[C@H](Cc1c[nH]c2ccccc12)C(=O)N[C@@H](CO)C(=O)N[C@@H](CCN)C(=O)N[C@H](CCN)C(=O)N[C@H](C(=O)N[C@@H](CCC(=O)O)C(=O)N[C@H](C(=O)N[C@@H](C(=O)N[C@@H](CO)C(=O)O)[C@@H](C)CC)[C@@H](C)CC)[C@@H](C)CC [Tridecaptin M, tridecaptin M] (X1-G[dDab]G[dS][dW]S[Dab][dDab]IEI[d(aIle)]S-OH) , please. < 0%

---

target: UniProt P33261; test: CYP inhibition assay, recombinant isoform, fluorescence; assay type: biochemical; conditions: human
Sequence (P33261 whole entry, canonical isoform): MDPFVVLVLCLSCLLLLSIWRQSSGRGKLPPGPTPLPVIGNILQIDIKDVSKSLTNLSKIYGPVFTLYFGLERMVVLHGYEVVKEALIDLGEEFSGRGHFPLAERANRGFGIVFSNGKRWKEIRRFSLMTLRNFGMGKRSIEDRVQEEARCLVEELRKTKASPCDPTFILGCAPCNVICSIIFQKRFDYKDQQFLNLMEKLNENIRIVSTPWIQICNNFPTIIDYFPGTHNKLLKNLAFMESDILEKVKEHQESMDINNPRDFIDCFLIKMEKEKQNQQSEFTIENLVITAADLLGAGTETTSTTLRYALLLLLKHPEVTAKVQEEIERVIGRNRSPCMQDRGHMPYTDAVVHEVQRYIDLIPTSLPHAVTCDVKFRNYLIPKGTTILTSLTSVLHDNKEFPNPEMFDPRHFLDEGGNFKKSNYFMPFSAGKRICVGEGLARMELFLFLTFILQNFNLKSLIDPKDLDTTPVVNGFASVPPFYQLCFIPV
Where a SMILES comes first, the peptide text is derived from it. [ ]: non-standard residue; d: D form. The star is where a group is joined. d(aIle) = CC[C@H](C)[C@@H](N)C(=O)O; X1 = CC[C@H](C)CCCCC(=O)*; dDab = NCC[C@@H](N)C(=O)O; Dab = NCC[C@H](N)C(=O)O
measure.name: inhibition at 25 min, 1 µM

Quick one: inhibition at 25 min, 1 µM of CC[C@H](C)CCCCC(=O)NCC(=O)N[C@H](CCN)C(=O)NCC(=O)N[C@H](CO)C(=O)N[C@H](Cc1c[nH]c2ccccc12)C(=O)N[C@@H](CO)C(=O)N[C@@H](CCN)C(=O)N[C@H](CCN)C(=O)N[C@H](C(=O)N[C@@H](CCC(=O)O)C(=O)N[C@H](C(=O)N[C@@H](C(=O)N[C@@H](CO)C(=O)O)[C@@H](C)CC)[C@@H](C)CC)[C@@H](C)CC [Tridecaptin M, tridecaptin M] (X1-G[dDab]G[dS][dW]S[Dab][dDab]IEI[d(aIle)]S-OH) ? < 0%

---

target: CYP1A2 (Homo sapiens); assay: in vitro; type: biochemical; details: human, % inhibition CYP 1A2
Sequence (P05177 whole entry): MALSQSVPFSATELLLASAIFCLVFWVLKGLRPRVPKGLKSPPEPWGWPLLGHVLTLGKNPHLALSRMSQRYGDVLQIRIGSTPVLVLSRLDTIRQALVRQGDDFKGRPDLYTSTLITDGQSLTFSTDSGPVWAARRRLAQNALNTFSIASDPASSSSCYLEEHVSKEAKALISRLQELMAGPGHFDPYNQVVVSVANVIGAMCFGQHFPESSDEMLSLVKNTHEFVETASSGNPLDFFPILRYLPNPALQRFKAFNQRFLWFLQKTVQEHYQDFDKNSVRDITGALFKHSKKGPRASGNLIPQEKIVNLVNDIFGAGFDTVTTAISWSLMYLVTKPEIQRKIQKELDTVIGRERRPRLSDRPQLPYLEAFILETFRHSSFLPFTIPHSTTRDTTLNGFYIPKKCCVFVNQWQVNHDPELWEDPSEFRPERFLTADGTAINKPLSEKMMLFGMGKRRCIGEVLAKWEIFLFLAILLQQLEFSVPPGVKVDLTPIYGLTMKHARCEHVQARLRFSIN
Where a SMILES comes first, the peptide text is derived from it. [ ]: non-standard residue; d: D form. The star is where a group is joined. d(aIle) = CC[C@H](C)[C@@H](N)C(=O)O; X1 = CC[C@H](C)CCCCC(=O)*; dDab = NCC[C@@H](N)C(=O)O; Dab = NCC[C@H](N)C(=O)O
Exercise: for every item that follows, state its recorded inhibition at 25 min, 0.1 µM.

# lookup: inhibition at 25 min, 0.1 µM of CC[C@H](C)CCCCC(=O)NCC(=O)N[C@H](CCN)C(=O)NCC(=O)N[C@H](CO)C(=O)N[C@H](Cc1c[nH]c2ccccc12)C(=O)N[C@@H](CO)C(=O)N[C@@H](CCN)C(=O)N[C@H](CCN)C(=O)N[C@H](C(=O)N[C@@H](CCC(=O)O)C(=O)N[C@H](C(=O)N[C@@H](C(=O)N[C@@H](CO)C(=O)O)[C@@H](C)CC)[C@@H](C)CC)[C@@H](C)CC [Tridecaptin M, tridecaptin M] (X1-G[dDab]G[dS][dW]S[Dab][dDab]IEI[d(aIle)]S-OH) < 0%

Which inhibition at 25 min, 0.1 µM value belongs to Cc1nc2c([nH]1)c(=O)n(C)c(=O)n2Cc1ccco1 [Furafylline, reference compound] ? < 0%
